The reported numbers originate from the supplement of paper PMC10065799.

- ASSAYED_TARGET: Hck (UniProt P08631)
- Sequence (P08631 whole entry, looked up): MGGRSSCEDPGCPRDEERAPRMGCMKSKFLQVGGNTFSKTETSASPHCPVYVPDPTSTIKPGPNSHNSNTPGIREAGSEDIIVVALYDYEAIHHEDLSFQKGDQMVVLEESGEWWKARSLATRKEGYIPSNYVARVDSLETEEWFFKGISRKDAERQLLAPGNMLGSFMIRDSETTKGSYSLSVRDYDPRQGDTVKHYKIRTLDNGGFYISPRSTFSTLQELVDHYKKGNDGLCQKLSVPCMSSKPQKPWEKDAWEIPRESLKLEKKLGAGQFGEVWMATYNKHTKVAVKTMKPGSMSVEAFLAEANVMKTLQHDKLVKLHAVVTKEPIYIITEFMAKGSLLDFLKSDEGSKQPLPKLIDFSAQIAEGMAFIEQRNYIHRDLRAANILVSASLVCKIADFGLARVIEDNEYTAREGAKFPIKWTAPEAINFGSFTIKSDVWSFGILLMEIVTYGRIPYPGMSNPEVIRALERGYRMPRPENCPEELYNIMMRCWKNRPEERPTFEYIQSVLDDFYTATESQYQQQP
- EXPERIMENTAL_DETAILS: phosphorylation enrichment, bacterial display (enrichment ratio); higher = better substrate or ligand; peptides without Tyr show the background
ENDPOINT_NAME: phosphorylation enrichment
Respond numerically, and do not add a unit to the figure.

# SEQ, phosphorylation enrichment
measured = [
    ("IVGRLYRLLTE [SETX_Y1978_L1976R]", 0.387),
    ("ILTLKYPIELG [ACTA1_Y71_H75L]", 0.518),
    ("ILDEAYVMAGA [ERBB2_Y772_V777A]", 0.537),
    ("FADIAYNYRHR [PAH_Y166_G171R]", 0.341),
    ("YKTPIYPYLLP [PLD2_Y578_T577I]", 0.628),
]

According to the records, this sequence TVDASYFGGRG [ANTXR2_Y380_YF] displays phosphorylation enrichment of 0.425

Noted for LDLPGYCLLRE [CCDC116_Y291_P293L] : its phosphorylation enrichment reads 0.636

Sure, the documented phosphorylation enrichment for KFRREYILSLE [GPC3_Y299_W296R_YF] is 0.474

Lab note: RFVTRSIFNRE [HLA-DQB1_Y62_Y62S_YF] gave phosphorylation enrichment of 0.632

Quick note, phosphorylation enrichment for IGNGFYFRVFS [MYBPC3_Y1136_YF] landed at 0.45

* * *

- ASSAYED_TARGET: SHP2-C SH2;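 further: peptide library displayed on the E. coli surface as eCPX fusions, selected cells deep-sequenced, score is each peptide's frequency after selection divided by its frequency in the input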
- EXPERIMENTAL_DETAILS: SH2 binding enrichment of the phosphorylated peptide, bacterial display (enrichment ratio); higher = better substrate or ligand; peptides without Tyr show the background
ENDPOINT_NAME: SH2 binding enrichment
Reply with the value as a number alone.

Short answer for KGKLIYLLGDS [NXPE1_Y350] : SH2 binding enrichment was 1.24

* * *

- ASSAYED_TARGET: EPHB2 (UniProt P29323)
- Sequence (P29323 whole entry, looked up): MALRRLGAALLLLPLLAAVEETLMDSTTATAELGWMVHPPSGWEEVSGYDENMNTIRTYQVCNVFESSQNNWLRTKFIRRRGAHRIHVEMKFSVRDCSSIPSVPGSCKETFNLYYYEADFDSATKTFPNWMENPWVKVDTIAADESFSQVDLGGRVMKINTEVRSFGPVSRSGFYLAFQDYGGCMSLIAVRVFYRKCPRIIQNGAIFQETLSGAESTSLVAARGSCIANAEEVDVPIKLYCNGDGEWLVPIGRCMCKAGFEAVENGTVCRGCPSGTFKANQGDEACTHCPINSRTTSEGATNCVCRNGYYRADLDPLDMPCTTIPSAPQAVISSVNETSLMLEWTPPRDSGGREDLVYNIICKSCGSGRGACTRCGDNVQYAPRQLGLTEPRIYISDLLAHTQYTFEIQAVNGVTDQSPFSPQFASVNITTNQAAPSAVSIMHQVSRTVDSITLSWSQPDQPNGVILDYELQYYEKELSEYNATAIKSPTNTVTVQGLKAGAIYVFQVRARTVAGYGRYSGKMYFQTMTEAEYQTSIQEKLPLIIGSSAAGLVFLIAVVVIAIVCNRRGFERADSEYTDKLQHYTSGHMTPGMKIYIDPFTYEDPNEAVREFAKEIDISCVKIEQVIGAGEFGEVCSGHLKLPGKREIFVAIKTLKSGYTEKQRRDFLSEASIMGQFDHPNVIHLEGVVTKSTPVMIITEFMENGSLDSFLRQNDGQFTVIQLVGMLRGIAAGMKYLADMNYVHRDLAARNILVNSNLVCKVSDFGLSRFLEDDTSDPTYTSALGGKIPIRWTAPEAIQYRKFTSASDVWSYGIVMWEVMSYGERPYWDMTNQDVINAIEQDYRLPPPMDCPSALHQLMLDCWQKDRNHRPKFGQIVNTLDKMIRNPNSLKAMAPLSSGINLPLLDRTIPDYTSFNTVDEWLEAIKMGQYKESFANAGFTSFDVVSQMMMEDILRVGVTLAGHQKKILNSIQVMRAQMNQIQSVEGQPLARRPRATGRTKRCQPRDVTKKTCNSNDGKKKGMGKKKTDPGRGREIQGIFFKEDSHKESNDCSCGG
- EXPERIMENTAL_DETAILS: phosphorylation enrichment, bacterial display (enrichment ratio); higher = better substrate or ligand; peptides without Tyr show the background
We use 0.5 as the dividing line for phosphorylation enrichment: on or above the line is y, below is n.

// known answers, use as guide
# SEQ, CATEGORY_LABEL
records = [
    ("ANNEFYFRVCA", "y"),
    ("KSVSQYLEMDK [CAGE1_Y438]", "n"),
    ("IVRSRYEDLED [VHL_Y185_L184R]", "y"),
]

Lookup: Test whether the sequence FEKNVYVDKNL [PTCHD3_Y688] records phosphorylation enrichment of 0.5 or higher.
Found: n

Lookup: Hi, just wondering whether EIIPFYGMSTF [FNDC3B_Y175_YF] shows phosphorylation enrichment of 0.5 or higher.
Found: y

Lookup: Confirm if phosphorylation enrichment reported for the sequence TQNGVYSAANY [DDX5_Y535] is 0.5 or above.
Found: y

Lookup: Could you tell me if the measured phosphorylation enrichment of LLLLFCVVRYC [MPZ_Y177_Y177C] reaches 0.5 or more?
Found: y

Lookup: Please tell me: is the sequence VSTAVYKRFAS [BEST1_Y148_P152A] at or over 0.5 in terms of phosphorylation enrichment?
Found: y

Lookup: Check if phosphorylation enrichment >= 0.5 (inclusive). Item: PLEGEYFTLQI [TP53_Y327_D324E]
Found: y
